Value source: the Deep4Chem optical property database

Recorded fluorescence lifetime by entry
assay comment: solvent given as SMILES
condition description: in CN(C)C=O
Please respond with the number in ns and leave the unit unwritten.

>>> result_value("O=C1NC(=O)c2ccc3c4ccc5c6c(ccc(c7ccc1c2c73)c64)C(=O)N(c1ccc(O)cc1)C5=O")
2.8
>>> result_value("CCN1\\C(=C/C=C/C=C/C2=[N+](CC)c3ccc4cc(Br)ccc4c3C2(C)C)C(C)(C)c2c1ccc1cc(Br)ccc21")
1.39
>>> result_value("O=C1CCCc2c1[nH]c1cc3c(cc21)OCO3")
0.838
>>> result_value("CCN(CC)c1ccc2cc(/C=C/C(=C(C#N)C#N)c3ccc(N(c4ccccc4)c4ccccc4)cc3)c(=O)oc2c1")
0.33
>>> result_value("CC1=CC(C)=[N+]2C1=Cc1c3ccccc3c(C#Cc3cccs3)n1[B-]2(F)F")
3.46
>>> result_value("COC(=O)C(Cc1ccc2oc(-c3ccc(Nc4ccccc4)cc3)nc2c1)NC(=O)OC(C)(C)C (stereo not given)")
2.45

Look up fluorescence lifetime: Cc1cccc(Nc2ccccc2C(=O)O)c1C
2.22

Look up fluorescence lifetime: CCCCOC(=O)c1ccccc1-c1c2ccc(=[N+](CC)CC)cc-2oc2cc(N(CC)CC)ccc12
1.92

Look up fluorescence lifetime: CC1(C)Nc2cc(Cl)ccc2-c2[nH]c3ccccc3c(=O)c21
9.36

Look up fluorescence lifetime: Nc1cccc2c1C(=O)NC2=O
15.8
